# ASSAY TARGET: human DLL4 protein (Acro, Cat. No. DL4-H5227) (human) (UniProt Q9NR61)
# Sequence (Q9NR61 27-524 limits assumed): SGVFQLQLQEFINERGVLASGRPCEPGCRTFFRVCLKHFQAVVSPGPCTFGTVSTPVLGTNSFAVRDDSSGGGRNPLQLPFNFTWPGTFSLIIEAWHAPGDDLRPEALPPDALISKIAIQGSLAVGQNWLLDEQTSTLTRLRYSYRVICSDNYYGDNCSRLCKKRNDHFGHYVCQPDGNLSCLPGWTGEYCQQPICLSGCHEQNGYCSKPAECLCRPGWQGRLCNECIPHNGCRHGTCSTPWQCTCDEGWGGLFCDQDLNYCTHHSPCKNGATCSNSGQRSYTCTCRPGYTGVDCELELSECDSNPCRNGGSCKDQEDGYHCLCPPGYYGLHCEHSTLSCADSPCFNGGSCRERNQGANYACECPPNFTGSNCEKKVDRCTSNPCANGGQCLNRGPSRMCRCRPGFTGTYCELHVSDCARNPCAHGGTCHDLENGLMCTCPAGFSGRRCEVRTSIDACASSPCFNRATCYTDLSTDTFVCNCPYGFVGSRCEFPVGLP
# ASSAY NOTES: ELISA, coated hDLL4; maximum over 0.1, 1, 10, 100 nM antibody

BINDER	RESULT UNITS	Emax of OD450 nm binding value
Hab015VL4VH1a-hFc (scFv, part only; not given: scFv linker and human IgG1 Fc, V domains shown, not shown: another chain or arm of the molecule; a dimerising Fc or GST; small tags and cut ends) VL: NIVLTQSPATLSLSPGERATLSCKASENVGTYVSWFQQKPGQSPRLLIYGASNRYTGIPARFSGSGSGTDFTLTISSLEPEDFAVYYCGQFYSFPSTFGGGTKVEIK VH: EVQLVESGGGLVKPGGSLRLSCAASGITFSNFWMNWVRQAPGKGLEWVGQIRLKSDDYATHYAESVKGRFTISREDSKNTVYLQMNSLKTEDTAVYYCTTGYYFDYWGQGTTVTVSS	OD450 nm	0.65
Hab008L3H5-hFc (scFv, part only; not given: scFv linker and human IgG1 Fc, V domains shown, not shown: another chain or arm of the molecule; a dimerising Fc or GST; small tags and cut ends) VL: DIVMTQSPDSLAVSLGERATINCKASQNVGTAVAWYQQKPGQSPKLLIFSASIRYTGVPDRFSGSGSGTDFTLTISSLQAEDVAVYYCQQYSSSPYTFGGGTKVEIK VH: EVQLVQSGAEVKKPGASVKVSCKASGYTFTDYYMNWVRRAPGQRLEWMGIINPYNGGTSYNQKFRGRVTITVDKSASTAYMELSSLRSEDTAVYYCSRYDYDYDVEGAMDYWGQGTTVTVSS	OD450 nm	0.18

Where these numbers come from: patent EP4786492A1
